Collected % Inhib CDK4/D @ 0.03 values appear next to each entry.
Biological target: CDK4/cyclin D3 (Homo sapiens, UniProt P11802)
Construct: made in house; host or cells: insect cells (baculovirus co-infection)
Sequence (P11802 whole entry): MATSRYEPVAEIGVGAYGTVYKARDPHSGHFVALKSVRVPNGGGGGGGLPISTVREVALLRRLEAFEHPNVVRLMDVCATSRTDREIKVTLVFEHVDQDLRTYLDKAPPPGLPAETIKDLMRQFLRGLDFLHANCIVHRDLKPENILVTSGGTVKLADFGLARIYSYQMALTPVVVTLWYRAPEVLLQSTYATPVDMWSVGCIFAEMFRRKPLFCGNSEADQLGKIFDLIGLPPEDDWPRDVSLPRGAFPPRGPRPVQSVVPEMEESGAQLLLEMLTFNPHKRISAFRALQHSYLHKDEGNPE
Sequence (P30281 1-264 partner limits assumed): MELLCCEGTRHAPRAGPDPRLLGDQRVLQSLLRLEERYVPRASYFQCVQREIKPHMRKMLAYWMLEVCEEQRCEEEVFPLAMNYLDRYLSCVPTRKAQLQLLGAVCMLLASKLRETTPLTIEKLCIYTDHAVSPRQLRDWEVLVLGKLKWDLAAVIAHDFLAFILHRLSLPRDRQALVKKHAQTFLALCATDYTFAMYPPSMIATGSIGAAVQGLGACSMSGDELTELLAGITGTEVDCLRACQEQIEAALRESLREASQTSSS
Assay: Inhibition of CDK4/Cyclin D retinoblastoma kinase activity
Assay type: biochemical
Settings: test compound at 0.03 (unit cell empty, head line shifted; μM)
Express it in %; write the number only.

Consider the worked cases shown below.
>>> observed("CC(C)CCCS(=O)(=O)c1ccc(Nc2nc(N)c(C(=O)c3c(Cl)cccc3Cl)s2)cc1 [DD(230)]")
"−17"
>>> observed("Nc1nc(Nc2ccc(S(=O)(=O)CCCO)cc2)sc1C(=O)c1c(Cl)cccc1Cl [DD(205)]")
"−4.1"
>>> observed("NC(=O)CS(=O)(=O)c1ccc(Nc2nc(N)c(C(=O)c3c(Cl)cccc3Cl)s2)cc1 [DD(181)]")
"−10"
>>> observed("Nc1nc(Nc2ccc(S(=O)(=O)CC3CNC(=O)O3)cc2)sc1C(=O)c1c(Cl)cccc1Cl (stereo not shown) [DD(169)]")
44
>>> observed("Nc1nc(Nc2ccc(S(=O)(=O)CCN3CCOCC3)cc2)sc1C(=O)c1c(Cl)cccc1Cl [DD(199)]")
"−7.7"
>>> observed("COC(=O)CS(=O)(=O)c1ccc(Nc2nc(N)c(C(=O)c3c(Cl)cccc3Cl)s2)cc1 [DD(226)]")
"−6.3"
>>> observed("Nc1nc(Nc2ccc(S(=O)(=O)CC3CCCO3)cc2)sc1C(=O)c1c(Cl)cccc1Cl (stereo not shown) [DD(178)]")
"−27"
>>> observed("COc1cccc(CS(=O)(=O)c2ccc(Nc3nc(N)c(C(=O)c4c(Cl)cccc4Cl)s3)cc2)c1 [DD(217)]")
"−8"
>>> observed("C=CCCS(=O)(=O)c1ccc(Nc2nc(N)c(C(=O)c3c(Cl)cccc3Cl)s2)cc1 [DD(166)]")
3.5
>>> observed("Nc1nc(Nc2ccc(S(=O)(=O)CCCO)cc2)sc1C(=O)c1c(Cl)cccc1Cl [DD(165)]")
"−1.8"

I'd like to know its % Inhib CDK4/D @ 0.03. The compound in question is COC(=O)/C=C/CS(=O)(=O)c1ccc(Nc2nc(N)c(C(=O)c3c(Cl)cccc3Cl)s2)cc1 [DD(164)]
−7.4

Looking for the measured % Inhib CDK4/D @ 0.03 of Nc1nc(Nc2ccc(S(=O)(=O)CCN3CCOCC3)cc2)sc1C(=O)c1c(Cl)cccc1Cl [DD(239)] , can you help?
12

Requested field: % Inhib CDK4/D @ 0.03. Item: Nc1nc(Nc2ccc(S(=O)(=O)CCN3CCCC3)cc2)sc1C(=O)c1c(Cl)cccc1Cl [DD(167)]
−2.5

Which measured % Inhib CDK4/D @ 0.03 value corresponds to COCCS(=O)(=O)c1ccc(Nc2nc(N)c(C(=O)c3c(Cl)cccc3Cl)s2)cc1 [DD(214)] ?
−10

Fill in: % Inhib CDK4/D @ 0.03 of CN1CCCC1CCS(=O)(=O)c1ccc(Nc2nc(N)c(C(=O)c3c(Cl)cccc3Cl)s2)cc1 (stereo not shown) [DD(219)] is ___
3.3

Returns the measured % Inhib CDK4/D @ 0.03 for the input compound. Input: CC(C)CCOC(=O)CS(=O)(=O)c1ccc(Nc2nc(N)c(C(=O)c3c(Cl)cccc3Cl)s2)cc1 [DD(194)]
−29
